target: GS-9005 hydrolase A (Homo sapiens, UniProt P42785); construct: Varying amounts of purified GS-9005 hydrolase A and control enzymes; from tissue; host or cells: human peripheral blood mononuclear cells (PBMC), purified by Q15 flow-through, SP-Sepharose, Butyl Sepharose HIC and lentil lectin chromatography; assay type: biochemical; conditions: read-out: concentration at which GS-9005 hydrolase A is inhibited by 50%
Sequence (P42785 46-496): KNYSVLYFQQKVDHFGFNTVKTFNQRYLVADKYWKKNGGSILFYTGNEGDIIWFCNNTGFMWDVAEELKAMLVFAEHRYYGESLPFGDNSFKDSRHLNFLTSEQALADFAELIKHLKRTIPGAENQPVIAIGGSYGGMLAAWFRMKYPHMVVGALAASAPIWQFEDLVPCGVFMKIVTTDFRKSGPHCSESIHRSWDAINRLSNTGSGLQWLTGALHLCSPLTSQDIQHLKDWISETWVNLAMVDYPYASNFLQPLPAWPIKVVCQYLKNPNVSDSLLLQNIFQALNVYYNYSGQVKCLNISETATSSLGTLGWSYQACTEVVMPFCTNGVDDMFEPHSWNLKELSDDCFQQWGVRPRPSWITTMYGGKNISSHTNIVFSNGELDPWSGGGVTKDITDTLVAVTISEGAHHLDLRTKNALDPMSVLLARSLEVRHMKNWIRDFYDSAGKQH
pIC50: −log10 of the molar value. Peptide text beside a SMILES is read from it. * marks the point of attachment. Cbz = O=C(OCc1ccccc1)*
MEASURE_NAME: pIC50

- MOLECULE: "O=S(=O)(F)Cc1ccccc1"
  MEASURE_NAME: "pIC50"
  MEASURED: "~3.70"

Field: next molecule
Q: Look up pIC50 with GS-9005 hydrolase A (Homo sapiens, UniProt P42785) for this molecule: O=C[C@@H]1CCCN1C(=O)[C@@H]1CCCN1C(=O)OCc1ccccc1 [Cbz-pro-pro-COH, Carboxybenzoyl-Pro-Pro-COH] (Cbz-Pro-Pro-aldehyde)
A: ~6.00

Ref: patent US7273715B2
